Known inhibition of aggregation of a selection of compounds
Test: inhibitors of mutant huntingtin aggregation, primary screen, imaging, exon1htt(103Q)mCFP cells, high-content imaging (AID 483);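 further: compound exposure lasted 3 days before fixation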
Conditions: exon1htt(103Q)mCFP cell line, aggregate imaging, at 2 µM; hits give high values
Kindly provide the numeric value in % only, without the unit symbol.

# COMPOUND, inhibition of aggregation, %
measured = [
    ("CCOC(=O)c1oc2ccccc2c1CSc1nnnn1-c1ccc(C)cc1", 8.2),
    ("CCOC(=O)C1CCN(c2c(NCCN3CCN(c4ccccc4)CC3)c(=O)c2=O)CC1", 7.2),
    ("Cc1nc2ccccc2c2oc(C(=O)N3CCC(N4CCCCC4)CC3)cc12", -14.4),
    ("C=CCSc1nc(N)c2c(C)c(C)sc2n1", 29.2),
    ("COC(=O)c1sc2ccccc2c1NC(=O)c1cccs1", 21.4),
]

Briefly, inhibition of aggregation measured for CCCNS(=O)(=O)c1ccc(OCC(=O)NCc2ccc3c(c2)OCO3)cc1 : -1.9

Briefly, inhibition of aggregation measured for Cn1cccc1Cc1nnc(SCC(=O)Nc2ccc(F)cc2F)n1-c1ccc(F)cc1 : -16.9

Briefly, inhibition of aggregation measured for COCCn1nnnc1C(c1cccs1)N1CCN(c2cc(C)ccc2C)CC1 (stereo not given) : -9

Briefly, inhibition of aggregation measured for CN(C)c1ccc(CNn2cnnc2)cc1 : 3.2

Briefly, inhibition of aggregation measured for O=c1c2ccccc2nnn1CSc1nnc2sc3ccccc3n12 : -28.8

Briefly, inhibition of aggregation measured for Cc1ccc(-c2cc(C(=O)O)n[nH]2)o1 : 3.3

Briefly, inhibition of aggregation measured for Cn1c2c(c(=O)n(C)c1=O)C(c1cccc(Br)c1)C1C(=O)c3ccccc3C1=N2 (stereo not given) : 2.7

Briefly, inhibition of aggregation measured for CCOC(=O)C(C)(C)Sc1nc2c(cnn2-c2ccc(C)cc2)c(=O)[nH]1 : -13.4

Briefly, inhibition of aggregation measured for Cc1cc2ccccc2c(=O)n1CC(=O)Nc1ccc2c(c1)OCO2 : -12.3

Briefly, inhibition of aggregation measured for CCN(CC)c1nc(N(CC)CC)[nH]c(=O)n1 : 15.2

Briefly, inhibition of aggregation measured for O=C(CCN1C(=O)C2C3C=CC(C3)C2C1=O)NC1CCCc2ccccc21 (stereo not given) : 4.3

Briefly, inhibition of aggregation measured for c1ccc2c(Cn3ccnc3)c[nH]c2c1 : -17.6

Briefly, inhibition of aggregation measured for CCC1(NC(C)=O)CC2CC1CC2NC(C)=O (stereo not given) : -4.3

Briefly, inhibition of aggregation measured for CCOCCCNC(=O)C(c1ccc(C)cc1)N(Cc1ccc2c(c1)OCO2)C(=O)c1cnccn1 (stereo not given) : 16.3

Briefly, inhibition of aggregation measured for Cc1cc(Nc2ccccc2)n(-c2ccccc2)n1 : 27.4

Briefly, inhibition of aggregation measured for COc1ccc2c(CC(=O)Nc3nnc(C4CC4)s3)coc2c1 : 7.5

Briefly, inhibition of aggregation measured for CC(C)c1ncc(C(O)c2cccc3ccccc23)n1C (stereo not given) : 11.4

Briefly, inhibition of aggregation measured for CCOC(=O)N1CCC(Nc2nc3ccccc3n3cnnc23)CC1 : -21.2

Briefly, inhibition of aggregation measured for O=C(Nc1cnn(Cc2ccc(F)cc2)c1)c1cnccn1 : -7.5

Briefly, inhibition of aggregation measured for CCOC(=O)CSc1nnc([C@H](CC(C)C)NC(=O)OC(C)(C)C)o1 : 23.3

Briefly, inhibition of aggregation measured for Cc1ccccc1-n1c(=O)cc(N2CCN(C(=O)c3ccco3)CC2)[nH]c1=O : 6.9

Briefly, inhibition of aggregation measured for CCOC(=O)N1CCC(NC(=O)Cn2c3c(c(-c4ccccc4Cl)cc2=O)CCC3)CC1 : 4.5

Briefly, inhibition of aggregation measured for CC1=C(C(=O)Nc2ccccc2)C(c2ccco2)C(C#N)=C(SCC(=O)Nc2cccc(C)c2C)N1 (stereo not given) : 16

Briefly, inhibition of aggregation measured for CCOC(=O)N1CCN(S(=O)(=O)c2cc(Cl)ccc2Cl)CC1 : 29.4

Briefly, inhibition of aggregation measured for CCOC(=O)Nc1cc(OC)c(OC)cc1Cc1nccc2cc(OC)c(OC)cc12 : -1.2

Briefly, inhibition of aggregation measured for CC(C)(C)OC(=O)N1CC=C2C(C#N)=C(N)C(C#N)(C#N)C(c3cccs3)C2C1 (stereo not given) : 16.5

Briefly, inhibition of aggregation measured for CC1CCc2nn(CC(=O)NCCN3CCOCC3)cc2C1 (stereo not given) : -0.2

Briefly, inhibition of aggregation measured for O=C1CC(c2cccs2)CC2=C1C(c1ccccc1)n1ncnc1N2 (stereo not given) : 4.6

Briefly, inhibition of aggregation measured for CC(C)(C)SCCNC(=O)CN1C(=O)c2ccccc2S1(=O)=O : -13.2

Briefly, inhibition of aggregation measured for O=C(CSc1nc(-c2ccccc2)cs1)NCc1ccco1 : 0.4

Briefly, inhibition of aggregation measured for C=CCn1c(=O)c2ccccc2n2c(SCC(=O)Nc3cc(C)on3)nnc12 : -23.3
